// provenance: ChEMBL document CHEMBL3132782

solubility: recorded values
# PROTOCOL: Aqueous solubility in fasted simulated intestinal fluid at pH 6.5
# Assay type: physicochemical
Numeric answer only, unit µg/mL assumed.

| SMILES_REPRESENTATION | UNIT_DESCRIPTOR | ENDPOINT_VALUE |
| --- | --- | --- |
| O=C(NC1CCCC1)N1Cc2cc(-c3c[nH]nc3C3CC3)cnc2C1 | µg/mL | 109 |
| Cc1cn(NC(=O)c2cnc(-c3ccccn3)nc2)c2ccc(F)cc12 | µg/mL | 4.6 |

# ---- query molecule ----
## Task Reported solubility, molecule `Cn1nnnc1N1CCC(NC(=O)c2ccc(-c3cccc(F)c3)nc2)CC1` : ____
## Result 31.2

----------
# PROTOCOL: Volume of distribution at steady state in rat at 1 mg/kg, iv or 3 mg/kg, po by LC-MS/MS method
# Assay type: ADME, organism-based
# RECORDED_CONDITIONS: in vivo, read-out: Vdss
VALUE_TYPE: Vd (L/kg)
Numeric answer only, unit L/kg assumed.

## Task Reported Vd, compound `O=C(NC1CCCC1)N1Cc2cc(-c3c[nH]nc3C3CC3)cnc2C1` : ____
## Result 2.8

----------
# PROTOCOL: AUC (0 to infinity) in rat at 1 mg/kg, iv or 3 mg/kg, po by LC-MS/MS method
# Format: ADME, organism-based
# RECORDED_CONDITIONS: plasma
VALUE_TYPE: AUC(0-inf) (ng·h/mL)
Numeric answer only, unit ng·h/mL assumed.

## Task Reported AUC(0-inf), molecule `O=C(NC1CCCC1)N1Cc2cc(-c3c[nH]nc3C3CC3)cnc2C1` : ____
## Result 295

----------
# SYSTEM_UNDER_TEST: Hematopoietic prostaglandin D synthase (Homo sapiens, UniProt O60760)
# Sequence (O60760 whole entry): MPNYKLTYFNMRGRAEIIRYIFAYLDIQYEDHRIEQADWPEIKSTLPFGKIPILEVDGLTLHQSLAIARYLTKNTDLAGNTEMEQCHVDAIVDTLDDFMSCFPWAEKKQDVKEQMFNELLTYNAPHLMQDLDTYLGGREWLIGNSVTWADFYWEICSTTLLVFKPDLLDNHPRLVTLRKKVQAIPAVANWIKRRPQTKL
# PROTOCOL: Inhibition of human hematopoietic prostaglandin D2 synthase by fluorescence polarisation assay
VALUE_TYPE: pIC50
Scale note: pIC50 = -log10(concentration in M).

Worked examples, 3 molecules total:
| SMILES_REPRESENTATION | SYSTEM_UNDER_TEST | pIC50 |
| --- | --- | --- |
| c1cncc(-c2c[nH]nc2C2CC2)c1 | Hematopoietic prostaglandin D synthase (Homo sapiens, UniProt O60760) | 4.77 |
| c1nc(NC2CCCC2)c2cn[nH]c2n1 | Hematopoietic prostaglandin D synthase (Homo sapiens, UniProt O60760) | 5.07 |
| CCNC(=O)N1Cc2cc(-c3c[nH]nc3C3CC3)cnc2C1 | Hematopoietic prostaglandin D synthase (Homo sapiens, UniProt O60760) | 7.40 |

# ---- query molecule ----
## Task // fetch Hematopoietic prostaglandin D synthase (Homo sapiens, UniProt O60760) pIC50 for `c1nc(NC2CCCC2)c2cc[nH]c2n1`
## Result 6.30

----------
# PROTOCOL: Cmax in rat at 3 mg/kg, po by LC-MS/MS method
# Type: ADME, organism-based
# Parameters: dose 3 mg/kg, route oral
# RECORDED_CONDITIONS: in vivo
VALUE_TYPE: Cmax (ng/mL)
Numeric answer only, unit ng/mL assumed.

## Task Reported Cmax, compound `O=C(NC1CCCC1)N1Cc2cc(-c3c[nH]nc3C3CC3)cnc2C1` : ____
## Result 196

----------
pIC50: recorded values
# SYSTEM_UNDER_TEST: Hematopoietic prostaglandin D synthase (Homo sapiens, UniProt O60760)
# PROTOCOL: Inhibition of human hematopoietic prostaglandin D2 synthase by rapid fire mass spectrometry assay
Scale note: pIC50 = -log10(concentration in M).

| SMILES_REPRESENTATION | ENDPOINT_VALUE |
| --- | --- |
| CCNC(=O)N1Cc2cc(-c3c[nH]nc3C3CC3)cnc2C1 | 6.30 |

# ---- query compound ----
## Task // fetch Hematopoietic prostaglandin D synthase (Homo sapiens, UniProt O60760) pIC50 for `O=C(NC1CCCC1)N1Cc2cc(-c3c[nH]nc3C3CC3)cnc2C1`
## Result 7.40

----------
# PROTOCOL: Half life in rat at 1 mg/kg, iv or 3 mg/kg, po by LC-MS/MS method
# Type: ADME, organism-based
# RECORDED_CONDITIONS: in vivo
VALUE_TYPE: half-life (h)
Numeric answer only, unit h assumed.

## Task Reported half-life, compound `O=C(NC1CCCC1)N1Cc2cc(-c3c[nH]nc3C3CC3)cnc2C1` : ____
## Result 2.2

----------
solubility: recorded values
# PROTOCOL: Aqueous solubility in fed simulated intestinal fluid at pH 6.5
# Type: physicochemical

| SMILES_REPRESENTATION | solubility |
| --- | --- |
| O=C(NC1CCCC1)N1Cc2cc(-c3c[nH]nc3C3CC3)cnc2C1 | 136 µg/mL |

## Task Reported solubility, compound `Cc1cn(NC(=O)c2cnc(-c3ccccn3)nc2)c2ccc(F)cc12` : ____
## Result < 1 µg/mL

## Task Reported solubility, compound `Cn1nnnc1N1CCC(NC(=O)c2ccc(-c3cccc(F)c3)nc2)CC1` : ____
## Result 44 µg/mL

----------
# PROTOCOL: Fraction unbound in rat at 1 mg/kg, iv or 3 mg/kg, po by LC-MS/MS method
# Type: ADME, organism-based
# RECORDED_CONDITIONS: in vivo
VALUE_TYPE: fraction unbound
Lab note: write the figure by itself, no unit.

## Task Reported fraction unbound, compound `O=C(NC1CCCC1)N1Cc2cc(-c3c[nH]nc3C3CC3)cnc2C1` : ____
## Result 0.055

----------
# PROTOCOL: Blood clearance in rat at 1 mg/kg, iv or 3 mg/kg, po by LC-MS/MS method
# Type: ADME, organism-based
VALUE_TYPE: clearance
Write down the value, and be sure its unit follows.

## Task Reported clearance, compound `O=C(NC1CCCC1)N1Cc2cc(-c3c[nH]nc3C3CC3)cnc2C1` : ____
## Result 33 mL/min/kg

----------
# PROTOCOL: Protein binding in rat whole blood at 1 mg/kg, iv or 3 mg/kg, po by LC-MS/MS method
# Format: ADME, organism-based
# RECORDED_CONDITIONS: read-out: PB (converted)
VALUE_TYPE: fraction unbound
Lab note: write the figure by itself, no unit.

## Task Reported fraction unbound, compound `O=C(NC1CCCC1)N1Cc2cc(-c3c[nH]nc3C3CC3)cnc2C1` : ____
## Result 0.055

----------
# PROTOCOL: Tmax in rat at 3 mg/kg, po by LC-MS/MS method
# Assay type: ADME, organism-based
# Set-up: dose 3 mg/kg, route oral
# RECORDED_CONDITIONS: in vivo
VALUE_TYPE: Tmax (min)
Numeric answer only, unit min assumed.

## Task Reported Tmax, molecule `O=C(NC1CCCC1)N1Cc2cc(-c3c[nH]nc3C3CC3)cnc2C1` : ____
## Result 30

----------
solubility: recorded values
# PROTOCOL: Aqueous solubility in water
# Format: physicochemical
Numeric answer only, unit µg/mL assumed.

Worked examples, 2 compounds total:
| SMILES_REPRESENTATION | ENDPOINT_VALUE |
| --- | --- |
| Cn1nnnc1N1CCC(NC(=O)c2ccc(-c3cccc(F)c3)nc2)CC1 | 16.5 |
| Cc1cn(NC(=O)c2cnc(-c3ccccn3)nc2)c2ccc(F)cc12 | 4.4 |

# ---- query compound ----
## Task Reported solubility, compound `O=C(NC1CCCC1)N1Cc2cc(-c3c[nH]nc3C3CC3)cnc2C1` : ____
## Result 52
